Test: Ability to inhibit blood platelet aggregation of human platelet-rich plasma induced by TP-receptor agonist U 46619
Label True when IC50 is strictly below 2000 nM; at or above that, label False.

Known results for compounds:
O=C(O)CC/C=C1\C[C@H]2C[C@@H](O)[C@H](C=NNC(=O)Nc3ccccc3)[C@H]2C1 :: False
O=C(O)CCC/C=C1/C[C@H]2CC[C@H](C=NNC(=O)Nc3ccccc3)[C@H]2C1 :: False
O=C(O)CCC/C=C1/C[C@H]2CC[C@H](C=NNC(=O)Nc3ccc(Cl)c(Cl)c3)[C@H]2C1 :: True
O=C(O)CCC/C=C1/CC2CCC([CH+][N-]NC(=O)Nc3ccc([N+](=O)[O-])cc3)C2C1 (stereo not drawn) :: True
O=C(O)CCC/C=C1\C[C@H]2C[C@@H](O)[C@H](C=NNC(=O)Nc3ccc(Cl)c(Cl)c3)[C@H]2C1 :: True
O=C(O)COC/C=C1/C[C@H]2C[C@@H](O)[C@H](C=NNC(=O)Nc3ccccc3)[C@H]2C1 :: True
O=C(O)CCC/C=C1\C[C@H]2CC[C@H](C=NNC(=O)Nc3cccc(Cl)c3)[C@H]2C1 :: False

Attention now shifts to the item below.
Here's an entry: `O=C(O)COC/C=C1\C[C@H]2C[C@@H](O)[C@H](C=NNC(=O)Nc3cccc(Cl)c3)[C@H]2C1` . Is its IC50 below 2000 nM? True
